assay: Compound stability in rat liver microsomes; assay type: in vitro ADME; conditions: liver microsomes, pH 7.4; in vivo CLint extrapolated from rat liver microsome incubation
measurement label: log10 of CLint scaled at 5 μM (log10 of the value in mL/min/kg)
// stored as log10 of CLint scaled at 5 μM expressed in mL/min/kg

Reference set (8 entries):
CC#Cc1cccc2nc([C@H](C)Nc3ncnc(N)c3-c3nc(C)no3)n(-c3ccccc3)c(=O)c12
1.93
C#Cc1cccc2nc([C@H](C)Nc3ncnc(N)c3-c3noc(C)n3)n(C3CC3)c(=O)c12
2.12
CC#Cc1cccc2nc([C@H](CC)Nc3ncnc(N)c3-c3nc(C)no3)n(-c3ccccc3)c(=O)c12
2.33
C[C@H](Nc1ncnc(N)c1-c1nnn(C)n1)c1nc2cccc(C#CC(C)(C)O)c2c(=O)n1-c1ccccc1
0.75
CC#Cc1cccc2nc([C@H](C)Nc3ncnc(N)c3-c3noc(C)n3)n(-c3ccccc3)c(=O)c12
1.99
CC#Cc1cccc2nc([C@H](C)Nc3ncnc(N)c3-c3nnn(C)n3)n(-c3ccccc3)c(=O)c12
1.85
CC#Cc1cccc2nc([C@H](C)Nc3ncnc(N)c3-c3nnc(C)o3)n(C3CC3)c(=O)c12
1.62
CC#Cc1cccc2nc([C@H](CC)Nc3ncnc(N)c3-c3nnc(C)o3)n(C3CC3)c(=O)c12
1.96

Exam item: So what does the record say about log10 of CLint scaled at 5 μM for "C#Cc1cccc2nc([C@H](C)Nc3ncnc(N)c3-c3nnc(C)o3)n(C3CC3)c(=O)c12" ?
Marked response: 1.54

Exam item: So what does the record say about log10 of CLint scaled at 5 μM for "C#Cc1cccc2nc([C@H](C)Nc3ncnc(N)c3-c3ncn(C)n3)n(C3CC3)c(=O)c12" ?
Marked response: 1.85

Exam item: So what does the record say about log10 of CLint scaled at 5 μM for "CC[C@H](Nc1ncnc(N)c1-c1nc(C)no1)c1nc2cccc(C#CCO)c2c(=O)n1-c1ccccc1" ?
Marked response: 2.14

Exam item: So what does the record say about log10 of CLint scaled at 5 μM for "Cc1nc(-c2c(N)ncnc2N[C@@H](C)c2nc3cccc(C#CC(C)(C)O)c3c(=O)n2-c2ccccc2)no1" ?
Marked response: 0.68

Exam item: So what does the record say about log10 of CLint scaled at 5 μM for "Cc1noc(-c2c(N)ncnc2N[C@@H](C)c2nc3cccc(C#CCO)c3c(=O)n2-c2ccccc2)n1" ?
Marked response: 1.49

src = patent US10751339B2
